Would you mind telling me the reported IV AUC0-last of each entry?
experiment-summary: Intravenous and oral pharmacokinetics in mice; for IV AUC0-last: test concentration or dose not given here
Assay type: in vivo
test-parameters: IV, male C57BL/6J mice, plasma
Give bare numbers, in ng·h/mL.

I would be grateful if you could provide IV AUC0-last for each of the following entries.
1. CNC(=O)C1(C)CN(C(=O)O[C@H]2O[C@@H]3O[C@@]4(C)CC[C@H]5[C@H](C)CC[C@@H]([C@H]2C)[C@@]35OO4)C1
2. CC(CO)C(=O)OC1OC2OC3(C)CCC4C(C)CCC(C1C)C24OO3 (stereo not shown) [PT-1, DHA 3-hydroxy-2-methylpropionate]
3. CC1CCC2C(C)C(OC(=O)N3CC(O)C3)OC3OC4(C)CCC1C32OO4 (stereo not shown) [PT-13, DHA 3-hydroxyazetidine-1-carboxylate]
4. CC1CCC2C(C)C(OC(=O)CC(C)(C)O)OC3OC4(C)CCC1C32OO4 (stereo not shown) [PT-4, DHA 3-hydroxy-3-methylbutanoate]

Result:
4200
100
2200
600

---

experiment-summary: Intravenous and oral pharmacokinetics in mice
Assay type: in vivo
test-parameters: IV, male C57BL/6J mice, plasma
Lab note: compare IV VD,ss with 1 L/kg, writing y if less and n if equal or more.

Study these solved cases before continuing.
C[C@H]1[C@@H](OC(=O)C(C)(C)CO)O[C@@H]2O[C@@]3(C)CC[C@H]4[C@H](C)CC[C@@H]1[C@@]24OO3 [PT-2, DHA 3-hydroxy-2,2-dimethylpropanoate]: n
CC1CCC2C(C)C(OC(=O)N3CC(C)(N)C3)OC3OC4(C)CCC1C32OO4 (centres unmarked): n
CC(CO)C(=O)OC1OC2OC3(C)CCC4C(C)CCC(C1C)C24OO3 (centres unmarked) [PT-1, DHA 3-hydroxy-2-methylpropionate]: n
CC1CCC2C(C)C(OC(=O)N3CC(O)C3)OC3OC4(C)CCC1C32OO4 (centres unmarked) [PT-13, DHA 3-hydroxyazetidine-1-carboxylate]: y
CC1CCC2C(C)C(OC(=O)CC(C)(C)O)OC3OC4(C)CCC1C32OO4 (centres unmarked) [PT-4, DHA 3-hydroxy-3-methylbutanoate]: n
CC1CCC2C(C)C(OC(=O)N3CC(C)(C(=O)O)C3)OC3OC4(C)CCC1C32OO4 (centres unmarked): n
CNC(=O)C1(C)CN(C(=O)O[C@H]2O[C@@H]3O[C@@]4(C)CC[C@H]5[C@H](C)CC[C@@H]([C@H]2C)[C@@]35OO4)C1: y
CC1CCC2C(C)C(OC(=O)N(C)CCO)OC3OC4(C)CCC1C32OO4 (centres unmarked) [PT-20, DHA (2-hydroxyethyl)(methyl)carbamate]: y

Problem: I'd appreciate it if you could check whether CC1CCC2C(C)C(OC(=O)N3CC(C)(O)C3)OC3OC4(C)CCC1C32OO4 (centres unmarked) has IV VD,ss smaller than 1 L/kg.
Result: n

Problem: Would you kindly verify if IV VD,ss of CC1CCC2C(C)C(OC(=O)N3CC(C)(C(=O)N(C)C)C3)OC3OC4(C)CCC1C32OO4 (centres unmarked) is strictly less than 1 L/kg?
Result: y

---

experiment-summary: Solubility of PT-30
Assay type: physicochemical
test-parameters: simulated gastric fluid
test-readout: solubility

Problem: Need solubility of C[C@@H]1CC[C@H]2[C@@H](C)C(OC(=O)N3CC4(CCNC4=O)C3)O[C@H]3O[C@@]4(C)CC[C@@H]1[C@]32OO4 (stereo partly shown) , thanks.
Result: < 0.1 mg/mL

---

experiment-summary: Intravenous and oral pharmacokinetics in mice; for IV AUC0-last: test concentration or dose not given here
Format: in vivo
test-parameters: mouse; IV, male C57BL/6J mice, plasma; read-out: IV AUC0-last
test-readout: AUC(0-t) (ng·h/mL)
One number for each entry, in ng·h/mL.

Problem: Quick one: AUC(0-t) for C[C@@H]1CC[C@H]2[C@@H](C)C(OC(=O)N3CC4(CCNC4=O)C3)O[C@H]3O[C@@]4(C)CC[C@@H]1[C@]32OO4 (stereo partly shown) [PT-30] ?
Result: 5300

---

experiment-summary: Intravenous and oral pharmacokinetics in mice
Type: in vivo
test-parameters: IV, male C57BL/6J mice, plasma
Hi, to clarify the labels: satisfied covers IV T1/2 from 10 min upward, not satisfied covers anything below 10 min.

CC1CCC2C(C)C(OC(=O)N(C)CCO)OC3OC4(C)CCC1C32OO4 (centres unmarked) [PT-20, DHA (2-hydroxyethyl)(methyl)carbamate]: satisfied
C[C@H]1[C@@H](OC(=O)C(C)(C)CO)O[C@@H]2O[C@@]3(C)CC[C@H]4[C@H](C)CC[C@@H]1[C@@]24OO3 [PT-2, DHA 3-hydroxy-2,2-dimethylpropanoate]: not satisfied

Problem: Does the molecule CC1CCC2C(C)C(OC(=O)N3CC(C)(C(=O)O)C3)OC3OC4(C)CCC1C32OO4 (centres unmarked) have recorded IV T1/2 that is 10 min or more?
Result: satisfied

Problem: Please check the record CC1CCC2C(C)C(OC(=O)N3CC(C)(C(N)=O)C3)OC3OC4(C)CCC1C32OO4 (centres unmarked) and state if its IV T1/2 is at or above 10 min.
Result: satisfied

Problem: Hi, just wondering whether CC(CO)C(=O)OC1OC2OC3(C)CCC4C(C)CCC(C1C)C24OO3 (centres unmarked) [PT-1, DHA 3-hydroxy-2-methylpropionate] shows IV T1/2 of 10 min or higher.
Result: not satisfied

Problem: Hi team, for CC1CCC2C(C)C(OC(=O)N3CC(C)(N)C3)OC3OC4(C)CCC1C32OO4 (centres unmarked) , is the recorded IV T1/2 at or above 10 min?
Result: satisfied

Problem: I'd appreciate it if you could say whether CC1CCC2C(C)C(OC(=O)CC(C)(C)O)OC3OC4(C)CCC1C32OO4 (centres unmarked) [PT-4, DHA 3-hydroxy-3-methylbutanoate] has IV T1/2 at least equal to 10 min.
Result: not satisfied

---

experiment-summary: Intravenous and oral pharmacokinetics in mice; for IV AUC0-last: test concentration or dose not given here
Assay type: in vivo
test-parameters: IV, male C57BL/6J mice, plasma
test-readout: IV AUC0-last (ng·h/mL)
One number for each entry, in ng·h/mL.

CC1CCC2C(C)C(OC(=O)N3CC(C)(C(=O)O)C3)OC3OC4(C)CCC1C32OO4 (stereo not shown) [PT-25]: 2200

Need IV AUC0-last for each of these compounds.
1. CC1CCC2C(C)C(OC(=O)N3CC(C)(O)C3)OC3OC4(C)CCC1C32OO4 (stereo not shown) [PT-14]
2. CC1CCC2C(C)C(OC(=O)N(C)CCO)OC3OC4(C)CCC1C32OO4 (stereo not shown) [PT-20, DHA (2-hydroxyethyl)(methyl)carbamate]
3. CC1CCC2C(C)C(OC(=O)N3CC(C)(N)C3)OC3OC4(C)CCC1C32OO4 (stereo not shown) [PT-24]
4. C[C@H]1[C@@H](OC(=O)C(C)(C)CO)O[C@@H]2O[C@@]3(C)CC[C@H]4[C@H](C)CC[C@@H]1[C@@]24OO3 [PT-2, DHA 3-hydroxy-2,2-dimethylpropanoate]
5. CC1CCC2C(C)C(OC(=O)N3CC(C)(C(N)=O)C3)OC3OC4(C)CCC1C32OO4 (stereo not shown) [PT-27]

Result:
[2200, 2400, 2200, 1200, 3300]

Problem: Param item = CC1CCC2C(C)C(OC(=O)N3CC(C)(C(=O)N(C)C)C3)OC3OC4(C)CCC1C32OO4 (stereo not shown) [PT-29] ; retrieve measured IV AUC0-last.
Result: 2000

---

experiment-summary: in vitro
Format: in vitro ADME
test-parameters: human
test-readout: recovery (%)
Give bare numbers, in %.

Some solved cases for reference:
C[C@H]1[C@@H](O)OC2O[C@@]3(C)CC[C@H]4[C@H](C)CC[C@@H]1[C@@]24OO3 (stereo in doubt) [DHA]: 102
CC(=O)CC(c1ccccc1)c1c(O)c2ccccc2oc1=O (stereo not shown) [warfarin]: 91.1
C[C@@H]1CC[C@H]2[C@@H](C)C(OC(=O)N3CC4(CCNC4=O)C3)O[C@H]3O[C@@]4(C)CC[C@@H]1[C@]32OO4 (stereo partly shown) [PT-30]: 84.9

From here, focus on the item given below.
Problem: Need recovery of C[C@H]1[C@H](OC(=O)CCC(=O)O)O[C@@H]2O[C@@]3(C)CC[C@H]4[C@H](C)CC[C@@H]1[C@@]24OO3 [artesunate] , thanks.
Result: 98

---

experiment-summary: Intravenous and oral pharmacokinetics in mice
Assay type: in vivo
test-parameters: mouse; IV, male C57BL/6J mice, plasma; read-out: IV T1/2 (converted)
test-readout: half-life (min)
One number for each entry, in min.

Problem: Would you mind telling me what half-life value was observed for C[C@@H]1CC[C@H]2[C@@H](C)C(OC(=O)N3CC4(CCNC4=O)C3)O[C@H]3O[C@@]4(C)CC[C@@H]1[C@]32OO4 (stereo partly shown) [PT-30] ?
Result: 13.2

---

experiment-summary: Intravenous and oral pharmacokinetics in mice
Type: in vivo
test-parameters: IV, male C57BL/6J mice, plasma
Can you tell me IV Clearance for the items I'm about to list?
Give bare numbers, in mL/min/kg.

Guide cases for IV Clearance, answers given:
CC1CCC2C(C)C(OC(=O)N3CC(C)(O)C3)OC3OC4(C)CCC1C32OO4 (centres unmarked) [PT-14]: 75
CC1CCC2C(C)C(OC(=O)N3CC(O)C3)OC3OC4(C)CCC1C32OO4 (centres unmarked) [PT-13, DHA 3-hydroxyazetidine-1-carboxylate]: 76
CC1CCC2C(C)C(OC(=O)CC(C)(C)O)OC3OC4(C)CCC1C32OO4 (centres unmarked) [PT-4, DHA 3-hydroxy-3-methylbutanoate]: 280
CC1CCC2C(C)C(OC(=O)N(C)CCO)OC3OC4(C)CCC1C32OO4 (centres unmarked) [PT-20, DHA (2-hydroxyethyl)(methyl)carbamate]: 69
CC(CO)C(=O)OC1OC2OC3(C)CCC4C(C)CCC(C1C)C24OO3 (centres unmarked) [PT-1, DHA 3-hydroxy-2-methylpropionate]: 1280
C[C@H]1[C@@H](OC(=O)C(C)(C)CO)O[C@@H]2O[C@@]3(C)CC[C@H]4[C@H](C)CC[C@@H]1[C@@]24OO3 [PT-2, DHA 3-hydroxy-2,2-dimethylpropanoate]: 140
CC1CCC2C(C)C(OC(=O)N3CC(C)(C(=O)N(C)C)C3)OC3OC4(C)CCC1C32OO4 (centres unmarked) [PT-29]: 82
CC1CCC2C(C)C(OC(=O)N3CC(C)(N)C3)OC3OC4(C)CCC1C32OO4 (centres unmarked) [PT-24]: 77
CC1CCC2C(C)C(OC(=O)N3CC(C)(C(=O)O)C3)OC3OC4(C)CCC1C32OO4 (centres unmarked) [PT-25]: 74
CNC(=O)C1(C)CN(C(=O)O[C@H]2O[C@@H]3O[C@@]4(C)CC[C@H]5[C@H](C)CC[C@@H]([C@H]2C)[C@@]35OO4)C1 [PT-28]: 38

Now let's try a different one.
Problem: Request the reported IV Clearance associated with CC1CCC2C(C)C(OC(=O)N3CC(C)(C(N)=O)C3)OC3OC4(C)CCC1C32OO4 (centres unmarked) [PT-27]
Result: 47
